The values you see were collected from patent US11160782B2.

- experimental.details: Transferability of nobiletin into blood circulation during oral administration to mice
- Type: in vivo
- settings: male, C57BL/6J, mouse, 200 mg/kg, plasma, read-out: Cmax (maximum blood concentration of nobiletin)
- Method: [Evaluation of Transferability of Nobiletin into Blood Circulation During Oral Administration to Mice] C57BL/6J mice (male, 6 week-old) were purchased from CLEA Japan, Inc. The mice were habituated to the environment for one week or more, and were fed to a test. […] The collected blood samples were centrifuged at 12,000 rpm for 10 minutes, and 30 μL of plasma in each sample was recovered into an Eppendorf tube. […] The nobiletin concentration in the plasma was measured by LC-MS/MS. […]
reported.property: Cmax (ng/mL)

- molecule.smiles: "COc1ccc(-c2cc(=O)c3c(OC)c(OC)c(OC)c(OC)c3o2)cc1OC"
  observed.value: 3700
